molecular target: EZH2 (Homo sapiens); experiment: EZH2 assay: rPRC2 with biotinylated oligonucleosome substrates and 3H SAM, FlashPlate scintillation counting, IC50; format: biochemical; conditions: rPRC2, biotinylated oligonucleosome substrates, 3H SAM; read-out: EZH2 IC50
pIC50: −log10 of the molar value.
Recorded pIC50 values for a group of compounds are listed next.

Some entries whose results are on file:
{"Compound String": "Cc1ccc(OCc2ccc(C(=O)NC3CC(C)(C)NC(C)(C)C3)cc2)nc1", "pIC50": "< 4.10"}
{"Compound String": "Cc1cc(C(=O)NC2CC(C)(C)NC(C)(C)C2)ccc1Oc1cccc(CC#N)c1", "pIC50": "> 5.30"}
{"Compound String": "COC(=O)c1ccc(-c2ccccc2Oc2ccc(C(=O)NC3CC(C)(C)NC(C)(C)C3)cc2Cl)cn1", "pIC50": "> 5.30"}

For the next question, use this compound.
EZH2 (Homo sapiens) / pIC50 / CC1(C)CC(NC(=O)c2ccc(Oc3cccc(-c4ccnnc4)c3C#N)c(Cl)c2)CC(C)(C)S1(=O)=O : value?
> 5.30

====

molecular target: EZH2 (Homo sapiens, UniProt Q15910); assay: EZH2 assay: rPRC2 with biotinylated oligonucleosome substrates and 3H SAM, FlashPlate scintillation counting, IC50; format: biochemical; conditions: rPRC2, biotinylated oligonucleosome substrates, 3H SAM; read-out: EZH2 IC50
Sequence (Q15910 whole entry): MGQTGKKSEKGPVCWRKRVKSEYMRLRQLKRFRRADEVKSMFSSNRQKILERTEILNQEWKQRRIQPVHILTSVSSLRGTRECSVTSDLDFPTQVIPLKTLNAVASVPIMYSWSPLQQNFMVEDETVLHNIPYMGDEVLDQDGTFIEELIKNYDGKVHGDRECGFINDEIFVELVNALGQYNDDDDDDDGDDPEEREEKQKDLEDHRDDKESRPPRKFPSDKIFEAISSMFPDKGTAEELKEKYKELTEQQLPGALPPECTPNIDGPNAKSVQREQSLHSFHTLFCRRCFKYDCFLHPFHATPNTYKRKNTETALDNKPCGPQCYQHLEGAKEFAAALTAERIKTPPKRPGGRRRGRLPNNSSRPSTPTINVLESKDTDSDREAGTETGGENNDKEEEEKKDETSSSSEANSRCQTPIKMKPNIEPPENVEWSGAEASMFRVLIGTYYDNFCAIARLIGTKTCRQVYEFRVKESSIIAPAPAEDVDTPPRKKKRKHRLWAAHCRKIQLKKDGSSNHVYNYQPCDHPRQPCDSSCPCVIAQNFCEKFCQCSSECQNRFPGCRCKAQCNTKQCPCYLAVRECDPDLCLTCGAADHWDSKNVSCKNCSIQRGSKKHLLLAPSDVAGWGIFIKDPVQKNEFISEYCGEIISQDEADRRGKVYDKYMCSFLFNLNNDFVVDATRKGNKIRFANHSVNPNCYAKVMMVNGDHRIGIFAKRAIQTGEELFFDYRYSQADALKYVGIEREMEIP
Sequence (O75530 whole entry partner): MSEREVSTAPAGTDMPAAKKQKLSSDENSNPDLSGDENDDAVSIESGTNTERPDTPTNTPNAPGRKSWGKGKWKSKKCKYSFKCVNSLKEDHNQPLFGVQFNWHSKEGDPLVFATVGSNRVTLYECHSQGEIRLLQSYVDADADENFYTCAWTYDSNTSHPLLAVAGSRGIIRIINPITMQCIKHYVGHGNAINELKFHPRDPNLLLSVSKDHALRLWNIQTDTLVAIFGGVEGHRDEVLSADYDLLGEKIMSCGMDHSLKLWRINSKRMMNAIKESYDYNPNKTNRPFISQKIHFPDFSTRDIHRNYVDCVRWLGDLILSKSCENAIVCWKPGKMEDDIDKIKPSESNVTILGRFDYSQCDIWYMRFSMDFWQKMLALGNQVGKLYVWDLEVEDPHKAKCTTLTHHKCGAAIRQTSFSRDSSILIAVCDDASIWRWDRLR
Sequence (Q15022 whole entry partner): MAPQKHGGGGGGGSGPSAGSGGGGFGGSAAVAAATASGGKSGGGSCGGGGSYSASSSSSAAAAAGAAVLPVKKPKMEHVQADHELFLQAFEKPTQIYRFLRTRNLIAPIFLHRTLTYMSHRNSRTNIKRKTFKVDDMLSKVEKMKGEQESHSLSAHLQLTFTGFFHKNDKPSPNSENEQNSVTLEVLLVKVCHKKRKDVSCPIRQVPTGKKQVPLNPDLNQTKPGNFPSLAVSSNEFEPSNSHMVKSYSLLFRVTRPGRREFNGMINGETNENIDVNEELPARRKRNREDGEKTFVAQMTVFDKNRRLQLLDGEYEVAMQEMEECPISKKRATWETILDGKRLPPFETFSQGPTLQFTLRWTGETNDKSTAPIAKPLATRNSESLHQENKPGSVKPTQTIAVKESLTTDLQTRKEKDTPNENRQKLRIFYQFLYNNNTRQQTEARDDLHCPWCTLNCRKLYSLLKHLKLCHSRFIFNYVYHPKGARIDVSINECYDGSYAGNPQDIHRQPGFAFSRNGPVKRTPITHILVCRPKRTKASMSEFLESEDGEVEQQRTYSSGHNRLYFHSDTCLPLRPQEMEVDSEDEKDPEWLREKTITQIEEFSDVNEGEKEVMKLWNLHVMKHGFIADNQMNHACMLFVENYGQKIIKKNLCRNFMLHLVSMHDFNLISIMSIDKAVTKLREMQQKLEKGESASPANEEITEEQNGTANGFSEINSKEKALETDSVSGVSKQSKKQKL
pIC50: −log10 of the molar value.
Recorded pIC50 values for a group of compounds are listed next.

{"Compound": "CC1(C)CC(NC(=O)c2ccc(Oc3cccc(C4CCNCC4)c3C#N)cc2)CC(C)(C)N1 [Compound I-534]", "Result": "> 5.30"}
{"Compound": "CC1(C)CC(NC(=O)c2ccc(Cn3cnc4ccccc43)cc2)CC(C)(C)N1 [Compound I-405]", "Result": "4.10 to 4.70"}
{"Compound": "CC1(C)CC(NC(=O)c2ccc(Oc3cccc4ncccc34)cc2)CC(C)(C)N1 [Compound I-222]", "Result": "< 4.10"}
{"Compound": "CC1(C)CC(NC(=O)c2ccc(Oc3cccc(-c4cncnc4)c3C#N)c(Cl)c2)CC(C)(C)N1 [Compound I-340]", "Result": "> 5.30"}

May I ask what pIC50 has been recorded for Cc1cc(Oc2ccccc2C#N)ccc1C(=O)NC1CC(C)(C)NC(C)(C)C1 [Compound I-243] ?
4.10 to 4.70

Same thing, different compound: CC1CCCCC1Oc1ccc(C(=O)NC2CC(C)(C)NC(C)(C)C2)cc1 (centres unmarked) [Compound I-298]
< 4.10

Same thing, different compound: Cc1ccc(Oc2ccc(C(=O)NC3CC(C)(C)NC(C)(C)C3)cc2)cc1 [Compound I-92]
< 4.10

Same thing, different compound: Cc1ccncc1-c1cccc(Oc2ccc(C(=O)NC3CC(C)(C)NC(C)(C)C3)cc2Cl)c1C#N [Compound I-365]
> 5.30

Same thing, different compound: CC1(C)CC(NC(=O)c2ccc(Oc3ccccc3)c(Br)c2)CC(C)(C)N1 [Compound I-144]
4.70 to 5.30

Same thing, different compound: Cn1cc(-c2ccccc2Oc2ccc(C(=O)NC3CC(C)(C)NC(C)(C)C3)cc2Cl)nn1 [Compound I-363]
> 5.30

Same thing, different compound: CC1(C)CC(NC(=O)c2ccc(-n3ccc4cc(O)ccc43)c(Cl)c2)CC(C)(C)N1 [Compound I-494]
4.10 to 4.70

====

Recorded IC50 values for a group of compounds are listed next.
target: EZH2 (Homo sapiens, UniProt Q15910); experiment: EZH2 assay: rPRC2 with biotinylated oligonucleosome substrates and 3H SAM, FlashPlate scintillation counting, IC50; type: biochemical; settings: rPRC2, biotinylated oligonucleosome substrates, 3H SAM; read-out: EZH2 IC50

Some entries whose results are on file:
{"Compound": "CC1(C)CC(NC(=O)c2ccc(OC3CCCCC3)cc2)CC(C)(C)N1", "Quantity": "IC50", "Result": "20 to 80 µM"}
{"Compound": "CC1(C)CC(NC(=O)c2ccc(Oc3ccc4ncccc4c3)cc2)CC(C)(C)N1", "Quantity": "IC50", "Result": "> 80 µM"}
{"Compound": "CC1(C)CC(NC(=O)c2ccc(COc3cccc(-c4cccc(O)c4)c3)cc2)CC(C)(C)N1", "Quantity": "IC50", "Result": "20 to 80 µM"}
{"Compound": "CC1(C)CC(NC(=O)c2ccc(Oc3ccccc3OCc3ccccc3)c(Cl)c2)CC(C)(C)N1", "Quantity": "IC50", "Result": "< 5 µM"}

May I ask what IC50 has been recorded for Cc1cccc(OCc2ccc(C(=O)NC3CC(C)(C)NC(C)(C)C3)cc2)n1 ?
> 80 µM

Same thing, different compound: CC1(C)CC(NC(=O)c2ccc(Oc3cccc(-c4cn[nH]c4)c3C#N)c(F)c2)CC(C)(C)N1
< 5 µM

Same thing, different compound: CC1(C)CC(NC(=O)c2ccc(Oc3ccccc3C#N)c(-c3cccnc3)c2)CC(C)(C)N1
< 5 µM

Same thing, different compound: CC1(C)CC(NC(=O)c2ccc(COc3cccc4ccccc34)cc2)CC(C)(C)N1
< 5 µM

Same thing, different compound: CC1(C)CC(NC(=O)c2ccc(Oc3c(Cl)cccc3C#N)cc2)CC(C)(C)N1
20 to 80 µM

====

target: EZH2 (Homo sapiens); assay: EZH2 assay: rPRC2 with biotinylated oligonucleosome substrates and 3H SAM, FlashPlate scintillation counting, IC50; type: biochemical; conditions: rPRC2, biotinylated oligonucleosome substrates, 3H SAM; read-out: EZH2 IC50
pIC50: −log10 of the molar value.
Recorded pIC50 values for a group of compounds are listed next.

EZH2 (Homo sapiens) / pIC50 / CN(C)C(=O)Cc1cccc(Oc2ccc(C(=O)NC3CC(C)(C)NC(C)(C)C3)cc2Cl)c1C#N [Compound I-464] : value?
< 4.10

Same thing, different compound: CC1(C)CC(NC(=O)c2ccc(Oc3cccc4cnc(Cl)cc34)cc2)CC(C)(C)N1 [Compound I-315]
> 5.30

Same thing, different compound: CC1(C)CC(NC(=O)c2ccc(COc3cccc(-c4ccc(N)nc4)c3)cc2)CC(C)(C)N1 [Compound I-1]
> 5.30

Same thing, different compound: CN1C2CCC1CC(NC(=O)c1ccc(Oc3ccccc3)cc1)C2 (centres unmarked) [Compound I-114]
< 4.10

====

Recorded IC50 values for a group of compounds are listed next.
target: UniProtKB Q15910; test: EZH2 assay: rPRC2 with biotinylated oligonucleosome substrates and 3H SAM, FlashPlate scintillation counting, IC50; assay type: biochemical; settings: rPRC2, biotinylated oligonucleosome substrates, 3H SAM; read-out: EZH2 IC50

Some entries whose results are on file:
{"Compound String": "Cc1cccc(C)c1Oc1ccc(C(=O)NC2CC(C)(C)NC(C)(C)C2)cc1", "IC50": "> 80 µM"}
{"Compound String": "CC1(C)CC(NC(=O)c2ccc(Oc3cccc(NCC(N)=O)c3C#N)c(Cl)c2)CC(C)(C)N1", "IC50": "< 5 µM"}

For the next question, use this compound.
May I ask what IC50 has been recorded for CC1(C)CC(NC(=O)c2ccc(CCc3ccccc3)cc2)CC(C)(C)N1 ?
> 80 µM

====

target: EZH2 (Homo sapiens); assay: EZH2 assay: rPRC2 with biotinylated oligonucleosome substrates and 3H SAM, FlashPlate scintillation counting, IC50; assay type: biochemical; settings: rPRC2, biotinylated oligonucleosome substrates, 3H SAM; read-out: EZH2 IC50
Quantity: IC50

{"Molecule": "CCc1cccc(Oc2ccc(C(=O)NC3CC(C)(C)NC(C)(C)C3)cc2)c1", "IC50": "> 80 µM"}
{"Molecule": "CC1(C)CC(/C=C/c2ccc(Oc3cccc(-c4ccncn4)c3C#N)c(Cl)c2)CC(C)(C)N1", "IC50": "< 5 µM"}
{"Molecule": "CC1(C)CC(NC(=O)c2ccc(Oc3ccccc3C#N)c3ccccc23)CC(C)(C)N1", "IC50": "< 5 µM"}
{"Molecule": "CC1(C)CC(NC(=O)c2ccc(Oc3ccccc3OCc3ccccn3)cc2)CC(C)(C)N1", "IC50": "5 to 20 µM"}
{"Molecule": "CCN(C(=O)c1ccc(Oc2ccccc2C#N)c(Cl)c1)C1CC(C)(C)NC(C)(C)C1", "IC50": "> 80 µM"}
{"Molecule": "CC1(C)CC(NC(C(=O)O)c2ccc(Oc3ccccc3C#N)c(Cl)c2)CC(C)(C)N1 (stereo not shown)", "IC50": "> 80 µM"}

For the next question, use this molecule.
EZH2 (Homo sapiens) / IC50 / CC1(C)CC(NC(=O)c2ccc(Oc3ccccc3C#N)c(CCc3ccccc3)c2)CC(C)(C)N1 : value?
< 5 µM

====

Recorded pIC50 values for a group of compounds are listed next.
biological target: EZH2 (Homo sapiens, UniProt Q15910); test: EZH2 assay: rPRC2 with biotinylated oligonucleosome substrates and 3H SAM, FlashPlate scintillation counting, IC50; type: biochemical; settings: rPRC2, biotinylated oligonucleosome substrates, 3H SAM; read-out: EZH2 IC50
pIC50: −log10 of the molar value.

Some entries whose results are on file:
{"Compound": "CC1(C)CC(NC(=O)c2ccc(Oc3ccccn3)cc2)CC(C)(C)N1 [Compound I-56]", "pIC50": "4.10 to 4.70"}
{"Compound": "Cc1cccc(C#N)c1Oc1ccc(C(=O)NC2CC(C)(C)NC(C)(C)C2)cc1 [Compound I-176]", "pIC50": "4.10 to 4.70"}
{"Compound": "CC1(C)CC(NC(=O)N2CCN(Cc3ccccc3C#N)C(=O)C2)CC(C)(C)N1 [Compound I-448]", "pIC50": "< 4.10"}
{"Compound": "CC1(C)CC(NC(=O)c2ccc(OCc3cccc(F)c3)cc2)CC(C)(C)N1 [Compound I-88]", "pIC50": "< 4.10"}
{"Compound": "COC(C)c1cccc(Oc2ccc(C(=O)NC3CC(C)(C)NC(C)(C)C3)cc2Cl)c1C#N (stereo not shown) [Compound I-420]", "pIC50": "> 5.30"}
{"Compound": "COc1ccc(Oc2ccc(C(=O)NC3CC(C)(C)NC(C)(C)C3)cc2)cc1 [Compound I-97]", "pIC50": "< 4.10"}

EZH2 (Homo sapiens, UniProt Q15910) / pIC50 / CC1(C)CC(NC(=O)N2CCC(Oc3ccccc3)C2)CC(C)(C)N1 (stereo not shown) [Compound I-466] : value?
< 4.10

Same thing, different compound: CC(=O)N1C(C)(C)CC(NC(=O)c2ccc(Oc3ccccc3C#N)c(Cl)c2)CC1(C)C [Compound I-290]
< 4.10

Same thing, different compound: CC(Oc1cccc(Oc2ccc(C(=O)NC3CC(C)(C)NC(C)(C)C3)cc2Cl)c1C#N)C(N)=O (stereo not shown) [Compound I-326]
4.70 to 5.30

Same thing, different compound: CC1(C)CC(NC(=O)c2ccc(OC3CCCNC3)c(Cl)c2)CC(C)(C)N1 (stereo not shown) [Compound I-393]
< 4.10
